Provide the recorded MIC for the entries that follow.
# System: Escherichia coli
# assayOverview: Antibacterial activity against enterotoxigenic Escherichia coli by disc diffusion method
# Format: functional
State just the number; it will be interpreted in µg/mL.

Memo: CCn1cc(C(=O)NN)c(=O)c2ccccc21 , reported MIC: 0.0625

Memo: CCn1cc(C(=O)O)c(=O)c2cc(F)c(N3CCNCC3)cc21 [NORFLOXACIN] , reported MIC: 0.0625

Memo: CCn1cc(C(=O)NN)c(=O)c2cc(F)ccc21 , reported MIC: 0.125

Memo: CCn1cc(C(=O)NNS(=O)(=O)c2ccc(C)cc2)c(=O)c2cc(F)ccc21 , reported MIC: 0.0625

Memo: CCn1cc(C(=O)NN)c(=O)c2cc(Cl)ccc21 , reported MIC: 0.25

Memo: CCn1cc(C(=O)NN)c(=O)c2ccc(Cl)cc21 , reported MIC: 0.0625

Memo: CCn1cc(C(=O)NNS(=O)(=O)c2ccc(C)cc2)c(=O)c2ccc(Cl)cc21 , reported MIC: 0.0625

Memo: CCn1cc(C(=O)NNS(=O)(=O)c2ccc(C)cc2)c(=O)c2cc(F)c(Cl)cc21 , reported MIC: 0.0625

Memo: O=C(O)c1cn(C2CC2)c2cc(N3CCNCC3)c(F)cc2c1=O [CIPROFLOXACIN] , reported MIC: 0.0625

Memo: CCn1cc(C(=O)NNS(=O)(=O)c2ccc(C)cc2)c(=O)c2ccccc21 , reported MIC: 0.125

Memo: CCn1cc(C(=O)NNS(=O)(=O)c2ccc(C)cc2)c(=O)c2cc(Cl)ccc21 , reported MIC: 0.0625

Memo: CCn1cc(C(=O)NN)c(=O)c2cc(F)c(Cl)cc21 , reported MIC: 0.0625
